- ASSAY NAME: Antitumor activity against CNS cell lines of the NCI60 panel
- Type: functional
- PARTICULARS: Homo sapiens
READOUT KIND: log10 of GI50 (log10 of the value in µM)

- MOLECULAR STRING: "CCCc1cn2c(/C=N/NC(=N)N)c(-c3cc([N+](=O)[O-])c(Cl)cc3Cl)nc2s1"
  READOUT KIND: "log10 of GI50"
  MEAS VALUE: 0.22
- MOLECULAR STRING: "N=C(N)N/N=C/c1c(-c2cc([N+](=O)[O-])c(Cl)cc2Cl)nc2n1CCS2"
  READOUT KIND: "log10 of GI50"
  MEAS VALUE: -0.52
- MOLECULAR STRING: "Cc1cn2c(/C=N/NC(=N)N)c(-c3cccnc3)nc2s1"
  READOUT KIND: "log10 of GI50"
  MEAS VALUE: 1.08
- MOLECULAR STRING: "CCc1cn2c(/C=N/NC(=N)N)c(-c3cc([N+](=O)[O-])c(Cl)cc3Cl)nc2s1"
  READOUT KIND: "log10 of GI50"
  MEAS VALUE: 0.16
- MOLECULAR STRING: "Cc1sc2nc(-c3ccncc3)c(/C=N/NC(=N)N)n2c1C"
  READOUT KIND: "log10 of GI50"
  MEAS VALUE: 1.59
- MOLECULAR STRING: "Cc1cn2c(/C=N/NC(=N)N)c(-c3ccncc3)nc2s1"
  READOUT KIND: "log10 of GI50"
  MEAS VALUE: 1.21
- MOLECULAR STRING: "N=C(N)N/N=C/c1c(-c2ccc(Cl)c([N+](=O)[O-])c2)nc2n1CCS2"
  READOUT KIND: "log10 of GI50"
  MEAS VALUE: 0.84
- MOLECULAR STRING: "N=C(N)N/N=C/c1c(-c2cc([N+](=O)[O-])c(Cl)cc2Cl)nc2sc(Cl)cn12"
  READOUT KIND: "log10 of GI50"
  MEAS VALUE: 1.03
- MOLECULAR STRING: "Cc1cn2c(/C=N/NC(=N)N)c(-c3cc([N+](=O)[O-])c(Cl)cc3Cl)nc2s1"
  READOUT KIND: "log10 of GI50"
  MEAS VALUE: 0.33
- MOLECULAR STRING: "Cc1sc2nc(-c3cc([N+](=O)[O-])c(Cl)cc3Cl)c(/C=N/NC(=N)N)n2c1C"
  READOUT KIND: "log10 of GI50"
  MEAS VALUE: 1.05

###

Measured TGI, listed per entry.
- ASSAY NAME: Antitumor activity against prostate cell lines of the NCI60 panel
- Assay type: functional
- PARTICULARS: Homo sapiens, read-out: pTGI (converted)

- MOLECULAR STRING: "Cc1cn2c(/C=N/NC(=N)N)c(-c3ccccn3)nc2s1"
  TGI / µM: 39.8
- MOLECULAR STRING: "N=C(N)N/N=C/c1c(-c2cc([N+](=O)[O-])c(Cl)cc2Cl)nc2sc(Cl)cn12"
  TGI / µM: 93.3
- MOLECULAR STRING: "CC(/C=N/NC(=N)N)=N\\NC(=N)N"
  TGI / µM: 1580
- MOLECULAR STRING: "Cc1sc2nc(-c3ccccn3)c(/C=N/NC(=N)N)n2c1C"
  TGI / µM: 57.5
- MOLECULAR STRING: "N=C(N)N/N=C/c1c(-c2cccnc2)nc2sc(Cl)cn12"
  TGI / µM: 28.2
- MOLECULAR STRING: "Cc1csc2nc(-c3cc([N+](=O)[O-])c(Cl)cc3Cl)c(/C=N/N=C(N)N)n12"
  TGI / µM: 35.5

###

- ASSAY NAME: Antitumor activity against renal cell lines of the NCI60 panel
- Format: functional, Homo sapiens
- PARTICULARS: Homo sapiens, renal
READOUT KIND: GI50 (µM)

- MOLECULAR STRING: "Cc1sc2nc(-c3ccncc3)c(/C=N/NC(=N)N)n2c1C"
  MEAS VALUE: 39.8
- MOLECULAR STRING: "Cc1cn2c(/C=N/NC(=N)N)c(-c3ccccn3)nc2s1"
  MEAS VALUE: 7.94
- MOLECULAR STRING: "CCc1cn2c(/C=N/NC(=N)N)c(-c3cc([N+](=O)[O-])c(Cl)cc3Cl)nc2s1"
  MEAS VALUE: 1.51

###

- ASSAY NAME: Antitumor activity against melanoma cell lines of the NCI60 panel
- Assay type: functional
- PARTICULARS: Homo sapiens; read-out: pTGI (converted)
Measured log10 of TGI, listed per entry.
READOUT KIND: log10 of TGI (log10 of the value in µM)

- MOLECULAR STRING: "Cc1csc2nc(-c3cc([N+](=O)[O-])c(Cl)cc3Cl)c(/C=N/N=C(N)N)n12"
  MEAS VALUE: 1.50
- MOLECULAR STRING: "N=C(N)N/N=C/c1c(-c2cccnc2)nc2sc(Cl)cn12"
  MEAS VALUE: 1.56
- MOLECULAR STRING: "Cc1sc2nc(-c3ccncc3)c(/C=N/NC(=N)N)n2c1C"
  MEAS VALUE: 1.92
- MOLECULAR STRING: "CCc1cn2c(/C=N/NC(=N)N)c(-c3cc([N+](=O)[O-])c(Cl)cc3Cl)nc2s1"
  MEAS VALUE: 0.45
- MOLECULAR STRING: "N=C(N)N/N=C/c1c(-c2cc([N+](=O)[O-])c(Cl)cc2Cl)nc2sc(Cl)cn12"
  MEAS VALUE: 1.73

###

- ASSAY NAME: Antitumor activity against renal cell lines of the NCI60 panel
- Assay type: functional, Homo sapiens
- PARTICULARS: Homo sapiens, renal

- MOLECULAR STRING: "N=C(N)N/N=C/c1c(-c2cc([N+](=O)[O-])c(Cl)cc2Cl)nc2sccn12"
  ENDPOINT UNIT: "µM"
  GI50: 2
- MOLECULAR STRING: "N=C(N)N/N=C/c1c(-c2ccc(Cl)c([N+](=O)[O-])c2)nc2n1CCS2"
  ENDPOINT UNIT: "µM"
  GI50: 10
- MOLECULAR STRING: "Cc1cn2c(/C=N/NC(=N)N)c(-c3ccncc3)nc2s1"
  ENDPOINT UNIT: "µM"
  GI50: 23.4
- MOLECULAR STRING: "N=C(N)N/N=C/c1c(-c2cc([N+](=O)[O-])c(Cl)cc2Cl)nc2n1CCS2"
  ENDPOINT UNIT: "µM"
  GI50: 1.17
- MOLECULAR STRING: "Cc1sc2nc(-c3cc([N+](=O)[O-])c(Cl)cc3Cl)c(/C=N/NC(=N)N)n2c1C"
  ENDPOINT UNIT: "µM"
  GI50: 8.71
